melting point overview

[
  {
    "compound": "CC(C)Cn1c(/N=C/c2ccc(N(C)C)cc2)nc2ccccc21 [Compound 28]",
    "value type": "melting point",
    "result": "277 to 279 °C"
  },
  {
    "compound": "CCN(CC)c1ccc(/C=N/c2nc3ccc(C#N)cc3n2-c2ccccc2)c(O)c1 [Compound 41]",
    "value type": "melting point",
    "result": "111 to 114 °C"
  },
  {
    "compound": "CC(C)Cn1c(/N=C/c2ccc(N(C)C)cc2)nc2ccc(C#N)cc21 [Compound 29]",
    "value type": "melting point",
    "result": "283 to 285 °C"
  },
  {
    "compound": "CCCCCCn1c(N)nc2ccc(C#N)cc21 [Compound 24, 2-Amino-6-cyano-1-hexylbenzimidazole]",
    "value type": "melting point",
    "result": "215 to 220 °C"
  },
  {
    "compound": "CCCCCCn1c(/N=C/c2ccc(N(CC)CC)cc2O)nc2ccccc21 [Compound 44]",
    "value type": "melting point",
    "result": "201 to 204 °C"
  },
  {
    "compound": "CCCCCCn1c(/N=C/c2ccc(N(C)C)cc2)nc2ccccc21 [Compound 42]",
    "value type": "melting point",
    "result": "231 to 234 °C"
  }
]

Inquiry: Which melting point reading was recorded for the compound CCCCCCn1c(N)nc2ccccc21 [Compound 20, 2-amino-1-hexylbenzimidazole] ?
Reply text: 245 to 250 °C

Inquiry: Which melting point reading was recorded for the compound CN(C)c1ccc(/C=N/c2nc3ccccc3n2C)cc1 [Compound 33] ?
Reply text: 186 to 188 °C

Inquiry: Which melting point reading was recorded for the compound CN(C)c1ccc(/C=N/c2nc3ccccc3n2-c2ccccc2)cc1 [Compound 38] ?
Reply text: 204 to 207 °C

====

# Test system: human coronavirus HCoV-229E
# assay remarks: organism not typed
# Type: cell-based
# measurement setup: HEL 299 cells, 100 CCID50, MTS; read-out: Antiviral Activity (EC50/μM) HCoV 229E HEL 299
EC50 overview
Just the number in µM, nothing appended.

[
  {
    "compound": "NC(=O)c1ncn([C@@H]2O[C@H](CO)[C@@H](O)[C@H]2O)n1 [Ribavirin, ribavirin, reference compound]",
    "EC50 / µM": 82.6
  }
]

Here's the next entry for you.
Inquiry: Which EC50 reading was recorded for the compound CC(C)Cn1c(/N=C/c2ccc([N+](=O)[O-])cc2)nc2ccc(C#N)cc21 [Compound 32] ?
Reply text: 38.5

====

CC50 overview
# assay remarks: in vitro
# measurement setup: human

Below: 2 molecules and their reported CC50.
[
  {
    "molecule": "CN(C)c1ccc(/C=N/c2nc3ccc(C#N)cc3n2C)cc1",
    "CC50": "> 100 µM"
  },
  {
    "molecule": "CN(C)c1ccc(/C=N/c2nc3ccccc3n2-c2ccccc2)cc1",
    "CC50": "> 100 µM"
  }
]

Inquiry: Which CC50 reading was recorded for the molecule CCC(CC)COC(=O)[C@H](C)N[P@](=O)(OC[C@H]1O[C@@](C#N)(c2ccc3c(N)ncnn23)[C@H](O)[C@@H]1O)Oc1ccccc1 [Remdesivir, remdesivir, reference compound] ?
Reply text: > 10 µM

====

# Test system: influenza A/H1N1 (A/Ned/378/05)
# assay remarks: Antiviral CPE reduction assay, influenza A/H1N1 in MDCK
# Type: cell-based
# measurement setup: Influenza A virus, MDCK cells, 100 CCID50, MTS
EC50 overview

Below: 7 compounds and their reported EC50.
[
  {
    "compound": "Cn1c(N)nc2ccc(C#N)cc21 [Compound 22, 2-amino-6-cyano-1-methylbenzimidazole]",
    "EC50": "> 100 µM"
  },
  {
    "compound": "Cn1c(N)nc2ccccc21 [Compound 18, 2-amino-1-methylbenzimidazole]",
    "EC50": "> 100 µM"
  },
  {
    "compound": "CCCCCCn1c(/N=C/c2ccc(N(C)C)cc2)nc2ccccc21 [Compound 42]",
    "EC50": "> 100 µM"
  },
  {
    "compound": "CC(C)Cn1c(/N=C/c2ccc([N+](=O)[O-])cc2)nc2ccc(C#N)cc21 [Compound 32]",
    "EC50": "> 100 µM"
  },
  {
    "compound": "NC(=O)c1ncn([C@@H]2O[C@H](CO)[C@@H](O)[C@H]2O)n1 [Ribavirin, ribavirin, reference compound]",
    "EC50": "10.5 µM"
  },
  {
    "compound": "CCN(CC)c1ccc(/C=N/c2nc3ccc(C#N)cc3n2C)c(O)c1 [Compound 36]",
    "EC50": "> 100 µM"
  },
  {
    "compound": "CC(N)C12CC3CC(CC(C3)C1)C2 (centres unmarked) [Rimantadine, rimantadine, reference compound]",
    "EC50": "5 µM"
  }
]

Here's the next entry for you.
Inquiry: Which EC50 reading was recorded for the compound CC(C)Cn1c(/N=C/c2ccc(N(C)C)cc2)nc2ccc(C#N)cc21 [Compound 29] ?
Reply text: 94.1 µM

====

# Tested on: E. coli efflux del
# assay remarks: microbe, parasite or virus in culture
# Type: cell-based
# measurement setup: Table 2 prints no unit; μM for compounds; antibiotics tested at 0.125–64 µg/mL
value type: MIC E. coli efflux del
Format: numeric value only, no unit, no commentary.

[
  {
    "molecule": "CCCCCCn1c(/N=C/c2ccc(N(C)C)cc2)nc2ccccc21 [Compound 42]",
    "MIC E. coli efflux del": 64
  },
  {
    "molecule": "CCCCCCn1c(N)nc2ccccc21 [Compound 23, 2-Amino-1-hexylbenzimidazole]",
    "MIC E. coli efflux del": 32
  }
]

Here's the next entry for you.
Inquiry: Which MIC E. coli efflux del reading was recorded for the molecule C[C@@H](O)[C@H]1C(=O)N2C(C(=O)O)=C(S[C@@H]3CN[C@H](C(=O)N(C)C)C3)[C@H](C)[C@H]12 [Meropenem, meropenem, reference compound] ?
Reply text: 8

====

# Tested on: K-562, chronic myeloid leukemia
# assay remarks: Proliferation assay (MTS, 72 h), K-562
# Format: cell-based, human
# measurement setup: Homo sapiens, K562
# Excerpt: Human cancer cells used in this manuscript, namely Capan-1, HCT-116, NCI-H460, LN-229, HL-60, K-562, and Z-138, were acquired from the American Type Culture Collection (ATCC, Manassas, VA, USA), while the DND-41 cell line was purchased from the Deutsche Sammlung von Mikroorganismen und Zellkulturen (DSMZ Leibniz-Institut, Braunschweig, Germany). […]
value type: IC50

[
  {
    "compound": "CCN(CC)c1ccc(/C=N/c2nc3ccccc3n2C)c(O)c1 [Compound 35]",
    "IC50": "> 100 µM"
  },
  {
    "compound": "CN(C)c1ccc(/C=N/c2nc3ccccc3n2C)cc1 [Compound 33]",
    "IC50": "> 100 µM"
  },
  {
    "compound": "CCCCCCn1c(N)nc2ccccc21 [Compound 23, 2-Amino-1-hexylbenzimidazole]",
    "IC50": "46.7 µM"
  }
]

Inquiry: Which IC50 reading was recorded for the compound CC(C)Cn1c(/N=C/c2ccc(N(C)C)cc2)nc2ccc(C#N)cc21 [Compound 29] ?
Reply text: > 100 µM

Inquiry: Which IC50 reading was recorded for the compound CCN(CC)c1ccc(/C=N/c2nc3ccccc3n2-c2ccccc2)c(O)c1 [Compound 40] ?
Reply text: 12.9 µM

====

EC50 overview
# Test system: yellow fever virus (YFV 17D)
# assay remarks: microbe, parasite or virus in culture
# Type: cell-based
# measurement setup: Huh-7, read-out: Antiviral Activity (EC50/μM) YFV 17D Huh-7

[
  {
    "compound": "CCC(CC)COC(=O)[C@H](C)N[P@](=O)(OC[C@H]1O[C@@](C#N)(c2ccc3c(N)ncnn23)[C@H](O)[C@@H]1O)Oc1ccccc1 [Remdesivir, remdesivir, reference compound]",
    "result": "6.2 µM"
  },
  {
    "compound": "CC(C)Cn1c(N)nc2ccccc21",
    "result": "> 100 µM"
  },
  {
    "compound": "CCN(CC)c1ccc(/C=N/c2nc3ccc(C#N)cc3n2-c2ccccc2)c(O)c1",
    "result": "> 100 µM"
  },
  {
    "compound": "CN(C)c1ccc(/C=N/c2nc3ccccc3n2-c2ccccc2)cc1",
    "result": "> 100 µM"
  }
]

Inquiry: Which EC50 reading was recorded for the compound CCN(CC)c1ccc(/C=N/c2nc3ccc(C#N)cc3n2CC(C)C)c(O)c1 ?
Reply text: > 100 µM

====

melting point overview

Below: 4 compounds and their reported melting point.
[
  {
    "molecule smiles": "CN(C)c1ccc(/C=N/c2nc3ccc(C#N)cc3n2-c2ccccc2)cc1",
    "melting point": "247 to 251 °C"
  },
  {
    "molecule smiles": "CC(C)Cn1c(/N=C/c2ccc([N+](=O)[O-])cc2)nc2ccc(C#N)cc21",
    "melting point": "277 to 279 °C"
  },
  {
    "molecule smiles": "CCCCCCn1c(/N=C/c2ccc(N(C)C)cc2)nc2ccc(C#N)cc21",
    "melting point": "165 to 170 °C"
  },
  {
    "molecule smiles": "CCN(CC)c1ccc(/C=N/c2nc3ccc(C#N)cc3n2CC(C)C)c(O)c1",
    "melting point": "205 to 208 °C"
  }
]

Here's the next entry for you.
Inquiry: Which melting point reading was recorded for the compound CCN(CC)c1ccc(/C=N/c2nc3ccccc3n2-c2ccccc2)c(O)c1 ?
Reply text: 197 to 201 °C

Cited source for all entries: paper PMC10180076
